# assay.text: Metabolic stability in rat liver microsomes assessed as intrinsic clearance half life
# Assay type: ADME, Microsome
readout: half-life

1. CC(C)/C(=C1\NC(=O)OC1=O)c1ccc(-c2ccc3cccc(F)c3c2)[nH]c1=O = > 3 h
2. CC(C)[C@@H](/C=C1\OC(=O)NC1=O)c1ccc(-c2ccc3cccc(F)c3c2)[nH]c1=O = > 3 h
3. O=C1NC(=O)/C(=C/C(c2ccc(-c3ccc4cccc(F)c4c3)[nH]c2=O)C2CC2)O1 (stereo not drawn) = > 3 h
